# Test system: HCT-15 colon
# TEST SUMMARY: NCI tumour cell line growth inhibition, 48 h
QUANTITY: TGI

COMPOUND | QUANTITY | OBSERVED
COc1cc2c3c(n(CCCOC(=O)C(F)(F)F)c(=O)c2cc1OC)-c1cc2c(cc1C3=O)OCO2 | TGI | > 100 µM
O=C(CSC1CCc2ccccc21)N/N=C/c1ccccc1O (centres undefined) | TGI | > 100 µM
c1ccc([P+](CC[P+](c2ccccc2)(c2ccccc2)c2ccccc2)(c2ccccc2)c2ccccc2)cc1 | TGI | > 100 µM
COc1cc(N=Nc2cccc(S(=O)(=O)O)c2)ccc1N=Nc1ccc(/C=C/c2ccc(-n3on3-c3ccc(/C=C/c4ccc(N=Nc5ccc(N=Nc6cccc(S(=O)(=O)O)c6)cc5OC)cc4S(=O)(=O)O)c(S(=O)(=O)O)c3)cc2S(=O)(=O)O)c(S(=O)(=O)O)c1 | TGI | > 100 µM
CNS(=O)(=O)NNS(=O)(=O)c1ccc(Br)cc1 | TGI | > 100 µM
Cc1cn(C2CC(O)C(CO[Si](C)(C)C(C)(C)C)OC2OC(C)C)c(=O)[nH]c1=O (centres undefined) | TGI | > 100 µM
CCCCCCCCCCCCC/C=C/[C@@H](O)[C@H](COC1OC(CO)C(OC2OC(CO)C(O)C(OC3(C(=O)O)CC(O)C(NC(C)=O)C(C(O)C(O)CO)O3)C2O)C(O)C1O)N=[N+]=[N-] (some centres undefined) | TGI | > 100 µM
CN1C(=O)/C(=C/c2c(Cl)n(C)c3ccccc23)c2ccccc21 | TGI | 3.56 µM
O=c1cc(CO)oc(C(O)c2ccccc2)c1O (centres undefined) | TGI | > 100 µM
CCOc1ccncc1[N+](=O)[O-] | TGI | > 100 µM
CC1CC[C@@]2(OC1)OC1C[C@H]3[C@@H]4CC[C@H]5CC(OC6OC(CO)C(O)C(OC7OC(CO)C(OC8OC(CO)C(O)C(OC9OC(CO)C(O)C(O)C9O)C8OC8OC(CO)C(O)C(O)C8O)C(O)C7O)C6O)[C@H](O)CC5(C)[C@H]4CCC3(C)C1[C@@H]2C (some centres undefined) | TGI | 19.3 µM
CCOC(=O)c1nc2ccc(C(F)(F)F)cc2[nH]c1=O | TGI | > 100 µM
COC(=O)/C=C1\CCC(C)O1 (centres undefined) | TGI | > 100 µM
O=[N+]([O-])/C(C(Cl)=C(Cl)Cl)=C(/Nc1ccccc1)SCc1ccccc1 | TGI | 29.7 µM
COc1ccc(C2OC(N)=C(C#N)C3=C2CCCC3C)cc1OC (centres undefined) | TGI | > 100 µM
O=C(O/C=C\OC1CCCC1(c1ccccc1)c1ccccc1)c1ccccc1 (centres undefined) | TGI | 5.72 µM
CC1=CCC(C)=Nc2nc3ccccc3n21 | TGI | > 100 µM
CC(=O)O/C(=C1\C[C@H]2[C@@H]3CC=C4C[C@@H](OC(C)=O)CC[C@]4(C)[C@H]3CC[C@]2(C)C1=O)C(F)(F)F | TGI | 17.6 µM
[N-]=[N+]=NC1C(O)C(CO)OC1n1ccc(=O)[nH]c1=O (centres undefined) | TGI | > 875 µM
COc1cc2c(c(OC)c1OC)-c1ncc3cc4c(cc3c1C2)OCO4 | TGI | > 100 µM
COC(=O)C1(C(=O)OC)C/C(C)=C(/C)SCCCS1 | TGI | > 100 µM
CN[C@@H](C)[C@@H](NC)c1ccccc1 | TGI | > 100 µM
C1=C\COCc2cc(ccc2OCCN2CCCC2)Nc2nccc(n2)-c2cccc(c2)COC/1 | TGI | 7.51 µM
Cc1ccc(S(=O)(=O)c2ccc(N)cc2)cc1 | TGI | > 100 µM
